- systemUnderTest: T1, FZD6 cysteine-rich domain (CRD), MYC-tagged and GPI-anchored on CHO cells (human, UniProt O60353 20-146, GPI anchor)
- T1 construct: also called FZD6 CRD; CHO-myc-FZDGPI; not shown: MYC tag and GPI anchor signal
- T1 sequence: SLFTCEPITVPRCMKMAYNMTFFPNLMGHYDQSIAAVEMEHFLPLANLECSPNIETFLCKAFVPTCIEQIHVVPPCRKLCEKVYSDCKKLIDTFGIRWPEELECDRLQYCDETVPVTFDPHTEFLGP
- experiment: flow cytometry, CHO-CRD cells;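 also: flow cytometry of Fab binding to CHO cells overexpressing a Frizzled CRD, with binding defined as median fluorescence over twice that of CHO cells lacking any Frizzled CRD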
Below, each entry is listed alongside its reported median fluorescence.
Please reply with the number alone, leaving off any unit.

Looking up Fab-2917 (Fab, V domains shown, Fab; also called Fv-2917) VH: EVQLVESGGGLVQPGGSLRLSCAASGFNFSSSSIHWVRQAPGKGLEWVASISSSYGYTYYADSVKGRFTISADTSKNTAYLQMNSLRAEDTAVYYCARAVWYYWWVWGGFDYWGQGTLVTVSS VL: DIQMTQSPSSLSASVGDRVTITCRASQSVSSAVAWYQQKPGKAPKLLIYSASSLYSGVPSRFSGSRSGTDFTLTISSLQPEDFATYYCQQSSYSLITFGQGTKVEIK , I see its median fluorescence listed as 2.89

For this binder ( Fab-2913 (Fab, V domains shown, Fab; also called Fv-2913) VH: EVQLVESGGGLVQPGGSLRLSCAASGFNISYSSIHWVRQAPGKGLEWVASIYPYSSSTSYADSVKGRFTISADTSKNTAYLQMNSLRAEDTAVYYCARYGYYGLDYWGQGTLVTVSS VL: DIQMTQSPSSLSASVGDRVTITCRASQSVSSAVAWYQQKPGKAPKLLIYSASSLYSGVPSRFSGSRSGTDFTLTISSLQPEDFATYYCQQWGVSHYLFTFGQGTKVEIK ), measured median fluorescence is 3.82

Fab-2904 (Fab, V domains shown, Fab; also called Fv-2904) VH: EVQLVESGGGLVQPGGSLRLSCAASGFNIYSYSMHWVRQAPGKGLEWVAYISSSYGYTSYADSVKGRFTISADTSKNTAYLQMNSLRAEDTAVYYCARSWYAWAMDYWGQGTLVTVSS VL: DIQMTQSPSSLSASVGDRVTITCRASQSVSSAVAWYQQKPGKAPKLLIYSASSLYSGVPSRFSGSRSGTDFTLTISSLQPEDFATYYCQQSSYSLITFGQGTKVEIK yielded median fluorescence of 3.59

Form field median fluorescence, entry Fab-2911 (Fab, V domains shown, Fab; also called Fv-2911) VH: EVQLVESGGGLVQPGGSLRLSCAASGFNIYYSSMHWVRQAPGKGLEWVAYIYPYSGYTSYADSVKGRFTISADTSKNTAYLQMNSLRAEDTAVYYCARYFWWYGFDYWGQGTLVTVSS VL: DIQMTQSPSSLSASVGDRVTITCRASQSVSSAVAWYQQKPGKAPKLLIYSASSLYSGVPSRFSGSRSGTDFTLTISSLQPEDFATYYCQQGPWYPFTFGQGTKVEIK : 3.68

Measured median fluorescence, Fab-2931 (Fab, V domains shown, Fab; also called Fv-2931) VH: EVQLVESGGGLVQPGGSLRLSCAASGFNLSYSSMHWVRQAPGKGLEWVAYISPYSGSTYYADSVKGRFTISADTSKNTAYLQMNSLRAEDTAVYYCARGSYWYVGGGWWVSGHGGMDYWGQGTLVTVSS VL: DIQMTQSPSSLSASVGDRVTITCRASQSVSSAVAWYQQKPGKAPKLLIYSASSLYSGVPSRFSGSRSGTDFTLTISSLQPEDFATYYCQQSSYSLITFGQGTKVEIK : 2.89

---
For Fab-2926 (Fab, V domains shown, Fab; also called Fv-2926) VH: EVQLVESGGGLVQPGGSLRLSCAASGFNIYSSYMHWVRQAPGKGLEWVASIYPSSSSTSYADSVKGRFTISADTSKNTAYLQMNSLRAEDTAVYYCARGGLDYWGQGTLVTVSS VL: DIQMTQSPSSLSASVGDRVTITCRASQSVSSAVAWYQQKPGKAPKLLIYSASSLYSGVPSRFSGSRSGTDFTLTISSLQPEDFATYYCQQWYHGGSLFTFGQGTKVEIK the binder record lists median fluorescence as 3.05

For Fab-2919 (Fab, V domains shown, Fab) VH: EVQLVESGGGLVQPGGSLRLSCAASGFNISYSYIHWVRQAPGKGLEWVASIYSSSGSTSYADSVKGRFTISADTSKNTAYLQMNSLRAEDTAVYYCARGAIDYWGQGTLVTVSS VL: DIQMTQSPSSLSASVGDRVTITCRASQSVSSAVAWYQQKPGKAPKLLIYSASSLYSGVPSRFSGSRSGTDFTLTISSLQPEDFATYYCQQWYSSGHVLITFGQGTKVEIK the binder record lists median fluorescence as 2.64
